Please provide measured growth inhibition for the entries that follow.
Assay: NCI Yeast Anticancer Drug Screen. Data for the sgs1 mgt1 strain (AID 161);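 note: 0% = growth of cultures given vehicle only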
Conditions: S. cerevisiae sgs1 mgt1 strain, at 50.0 µM, hits give high values
Compounds without any hit were thinned out: in the full panel of roughly 79,000, 15% have a hit. Active and inactive are the calls of the source. Cut-off read from the data, not from the text of the source: active = growth inhibition above about 70%; inactive = the rest.

Just so you know, measured growth inhibition for `CC(C)CN(CC(C)C)C(=O)CCl` came out at 14.1% (inactive)

growth inhibition for CC(N(C)Cc1ccccc1)C(C)(O)c1ccccc1 (configuration not stated) is 7.75% (inactive)

Reported growth inhibition ( NC(Cc1ccccc1CP(=O)(O)O)C(=O)O (configuration not stated) ) = -16.4% (inactive)

Noted for `CCN(CC)CCNc1nc(N)c(C#N)c(C#N)c1C#N` : its growth inhibition reads -4.55% (inactive)

Just so you know, measured growth inhibition for Nc1cccc(OCC2CCCN3CCCCC23)c1 (configuration not stated) came out at 4.9% (inactive)

Entry `N#CCCC1(CCC#N)CCCCCCCCC(CCC#N)(CCC#N)C(=O)C1=O` ; growth inhibition = -5.15% (inactive)

// sample `CC(C)=C=CC(C)(C)NS(=O)(=O)NC(C)(C)C=C=C(C)C` , its growth inhibition was 2.4% (inactive)

The recorded growth inhibition for `O=[N+]([O-])c1ccc(CCCn2cnc3c(Cl)ncnc32)c([N+](=O)[O-])c1` is 7.95% (inactive)

Entry CSc1ncnc2c1ncn2CC(=O)C1CCC2C3CCC4=CC(=O)CCC4(C)C3CCC12C (configuration not stated) ; growth inhibition = -1.9% (inactive)

Memo: `Cc1cc(O)c([N+](=O)[O-])c(C)c1[N+](=O)[O-]` , reported growth inhibition: 3.5% (inactive)

For record `Cc1nnc2cc1CCCCCCCCC2` the listed growth inhibition is 4.8% (inactive)

Memo: O=C1CSC(c2ccc([N+](=O)[O-])cc2)N1c1nc(-c2ccc3c(c2)CCCC3)cs1 (configuration not stated) , reported growth inhibition: 21.1% (inactive)

###

Test: NCI Yeast Anticancer Drug Screen. Data for the mec2-1 strain (AID 157)
Details: S. cerevisiae mec2-1 strain, at 50.0 µM, hits give high values
The panel holds about 79,000 compounds, 15% with a hit somewhere; the sample as a whole holds those more often.
Exercise: state measured growth inhibition for each of the compounds provided.
Field format: number, assumed %, no unit text.

In plain terms, `c1ccc(CSC2(SCc3ccccc3)CCCC2)cc1` has a documented growth inhibition of -19.3

Quick note, growth inhibition for `CCNC(=S)Nc1ccc(OCC)cc1` landed at 24.3

Memo: `C[n+]1ccc(/C(C#N)=N/O)cc1` , reported growth inhibition: -39.9

Noted for `c1ccc2c(c1)CCCN2c1ncnc2ccccc12` : its growth inhibition reads -8.45

Entry under test: `CCCc1c(N)nc(N)nc1N` . Its growth inhibition was 2.05

Recorded result, `O=C(NNC(=O)c1cccc(Br)c1)c1ccccc1` , growth inhibition: -37.6

###

Assay: NCI Yeast Anticancer Drug Screen. Data for the bub3 strain (AID 167)
Details: S. cerevisiae bub3 mutant strain, at 50.0 µM, hits give high values
Compounds without any hit were thinned out: in the full panel of roughly 79,000, 15% have a hit.
Measured quantity: growth inhibition (%)
API: value field is a number in %; no unit string.

Entry under test: O=C(NCCS(=O)(=O)N1C(=O)C2CCCN2C(=O)[C@@H]1Cc1ccccc1)OCc1ccccc1 (some centres undefined) . Its growth inhibition was 5.8

growth inhibition reported for this compound COC(=O)C(=O)C(C(=O)C(=O)Nc1cc([N+](=O)[O-])ccc1[N+](=O)[O-])c1nc2ccc(C(=O)c3ccccc3)cc2[nH]c1=O (centres undefined) : 40.6

Recorded growth inhibition (compound CNCC(C(=O)C(CNC)c1ccccc1)c1ccccc1 (centres undefined) ): 4

Measured growth inhibition, O=c1[nH]c(=O)n(C2CC(O)C(CO)O2)cc1OCC1CCCCC1 (centres undefined) : -14.4

Value of measured growth inhibition for the entry `COC1=C(O)C(=O)C(OC)=C(O)C1=O` : 9.75

Notebook: `Cc1nc2ccccc2n1C(=O)c1c(F)c(F)c(F)c(F)c1F` , growth inhibition read as -9.8

In plain terms, `N#CCCN(CCC#N)c1ccc(/C=C2\N=C(c3cc([N+](=O)[O-])ccc3Cl)OC2=O)cc1` has a documented growth inhibition of 4.85

Documented growth inhibition of `CC(=O)Oc1cc(C)c(OC(C)=O)cc1C` : 16.9

growth inhibition measured on `OCCSCc1ccccc1` = -13.7

compound `Cc1ccc2ccc(=O)oc2c1` , growth inhibition observed: 13.8

// field: growth inhibition; key: CC12C(=O)OC(=O)C1C1C=CC2C1 (centres undefined) ; value = -0.35

The recorded growth inhibition for `C/C(=C\C(C)(C)c1ccccc1)c1ccccc1` is 9.2

Memo: `C=CCN(CC=C)CNC(C)=O` , reported growth inhibition: -7.55

Value of growth inhibition reported for the compound OCc1ccc2[n+](c1)CCC1c3ccccc3NC21 (centres undefined) is -26.3

The compound listed as `Cc1cc(C)c(NC(=O)Nc2ccc(C(Cl)(Cl)Cl)cc2)c(C)c1` has a reported growth inhibition of 2.9

Entry under test: `C=CCNC(=S)Nc1ccccc1` . Its growth inhibition was -18.9

For record `CSc1cc2c(cc1[N+](=O)[O-])C(=O)c1ccccc1-2` the listed growth inhibition is 4.05

Record summary for `C=CCNC(=S)N(Cc1ccccc1)Cc1ccccc1` : reported growth inhibition = 88.7

Item: COC(=O)C(NC(=O)C(=O)NC(C(=O)OC)C(C)(C)S)C(C)(C)S (centres undefined) | growth inhibition: -5

###

Assay: NCI Yeast Anticancer Drug Screen. Data for the mec2-1 strain (AID 157)
Details: S. cerevisiae mec2-1 strain, at 50.0 µM, hits give high values
The panel holds about 79,000 compounds, 15% with a hit somewhere; the sample as a whole holds those more often. Activity calls are given as the source filed them. No stated cut-off is given here; in the data, active means growth inhibition above about 70%; inactive means the rest.
Answer each item with its documented growth inhibition.

Data point: `O=C(Cc1nc2ccccc2[nH]c1=O)c1cccnc1` ; growth inhibition = 8.25% (inactive)

Form field growth inhibition, entry CC(NC(=O)OCC[P+](c1ccccc1)(c1ccccc1)c1ccccc1)C(=O)O (stereo not given) : -4.35% (inactive)

Entry CCOC(=O)C1(C(=O)OCC)CC1c1ccccc1 (stereo not given) ; growth inhibition = -32.5% (inactive)

The reported growth inhibition of the compound `COc1ccccc1C(=O)O` was -16.8% (inactive)

The reported value for `N#C/C(=C\c1cc(F)cc(F)c1)c1ccccn1` in terms of growth inhibition is -0.95% (inactive)

###

Assay: NCI Yeast Anticancer Drug Screen. Data for the mlh1 rad18 strain (AID 175)
Conditions: S. cerevisiae mlh1 rad18 strain growth inhibition; at 50.0 µM; hits give high values
The panel holds about 79,000 compounds, 15% with a hit somewhere; the sample as a whole holds those more often.
Measured quantity: growth inhibition (%)
Numeric only. Scale: %

compound `O=c1[nH]nc(SCc2ccccc2)c(=O)[nH]1` , growth inhibition observed: -18.9

Summary for this compound, CC1(C)CC(=O)OC/C=C\CC(Cc2ccccc2)C(=O)C1 (stereo unspecified) : growth inhibition is 1.9

// recorded growth inhibition for `CN(C)c1nc(N)nc(CS)n1` : -39.5

growth inhibition measured on `O=C(CN=C(CN(c1ccccc1)c1ccccc1)Oc1c(Cl)cc(Cl)cc1Cl)n1cnc2ccccc21` = 10.4

Input `Cc1ccc2c(ccc3nnc(C)n32)c1` . Output growth inhibition: 10.8

// sample CC1(C)C2CC3C(=CCCC3C(=O)O)C1C2 (stereo unspecified) , its growth inhibition was 12.8

###

Assignment: determine reported growth inhibition for the given molecules.
Experiment: NCI Yeast Anticancer Drug Screen. Data for the sgs1 mgt1 strain (AID 161);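 note: 0% = growth of cultures given vehicle only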
Conditions: S. cerevisiae sgs1 mgt1 strain, at 50.0 µM, hits give high values
The panel holds about 79,000 compounds, 15% with a hit somewhere; the sample as a whole holds those more often. Active and inactive are the calls of the source. Cut-off read from the data, not from the text of the source: active = growth inhibition above about 70%; inactive = the rest.

growth inhibition reported for this molecule `CCCCCCCCOC(=O)C1(O)CCCCC1` : 16.1% (inactive)

Notebook: `Cc1n[nH]c(=O)n1N1C(=O)c2ccccc2C1=O` , growth inhibition read as -25.7% (inactive)

Reported growth inhibition for CC1(C)C[C@H](OC2CCCCO2)[C@H]2O[C@@]2(C)C1 (some centres not stated) was -29.8% (inactive)

molecule COc1cc(C(C)O)c[n+](Cc2ccccc2)c1 (configuration not stated) , growth inhibition observed: -16.1% (inactive)

In plain terms, `O=C(O)Cc1cc2cccc([N+](=O)[O-])c2[nH]1` has a documented growth inhibition of 8.75% (inactive)

Per the record, `CN(C)Cc1cc(C(C)(C)C)cc(CN(C)C)c1O` has growth inhibition of -13% (inactive)

Value of measured growth inhibition for the entry `CSc1cc(=O)[nH]c(=O)[nH]1` : 4.2% (inactive)

The value of growth inhibition measured for the molecule `Cn1c(=O)c2c(nc(Br)n2CC(=O)CF)n(C)c1=O` turned out to be -3.75% (inactive)

Record `O=C1c2ccccc2C(=O)c2c1cccc2S(=O)(=O)Nc1ccccc1` , field growth inhibition: 11.2% (inactive)

# molecule COC(=O)C1(Cc2ccccc2)Cc2cc3c(cc2C1=O)CCC3 (configuration not stated) ; its growth inhibition = 8.5% (inactive)

growth inhibition in this record for COc1ccc(C2SCC(=O)N2c2nncs2)cc1F (configuration not stated) : 20.9% (inactive)

So for COC(=O)C1CC(=O)N(CCCl)C1 (configuration not stated) , the logged growth inhibition turned out to be -23.9% (inactive)

The recorded growth inhibition for `COc1cc(-c2cc(OC)c(N=N/C(=N/Nc3ccc([N+](=O)[O-])cc3)c3ccc([N+](=O)[O-])cc3)cc2Cl)c(Cl)cc1N=N/C(=N\Nc1ccc([N+](=O)[O-])cc1)c1ccc([N+](=O)[O-])cc1` is -5.95% (inactive)

The molecule `c1ccc(C2(c3ccccc3)CCc3ccccc3O2)cc1` showed growth inhibition equal to 4.7% (inactive)

The reported value for Cc1c(C(=O)CC(=O)C(=O)NC2C3CC4CC(C3)CC2C4)[n+](=O)c2ccccc2n1[O-] (configuration not stated) in terms of growth inhibition is -26.7% (inactive)

// sample CN(C)N1C(=O)c2ccccc2NC1c1ccccc1 (configuration not stated) , its growth inhibition was 29.6% (inactive)

Memo: `S=C1SCN(C(c2ccccc2)c2ccccc2)CN1C(c1ccccc1)c1ccccc1` , reported growth inhibition: 9.4% (inactive)
